Entries and their measured IC50 follow.
System: P388 (mouse lymphoid neoplasma cell)
Assay: Dye exclusion assay, in vitro antitumor effects against animal leukemia cells
Format: cell-based
Settings: P388, trypan blue dye exclusion, 48 hours, read-out: concentration showing 50% cell growth inhibition (IC50)
Give a bare numeral; the unit µg/mL is implied.

Check out these entries, answers already filled in.
- CCc1nc(OC)c(NC(=O)N2CCN(c3cc(F)cc(F)c3)CC2)cc1C(=O)NC(C)C(=O)Nc1cc(CO)cc(Nc2c3ccccc3nc3ccccc23)c1 (centres unmarked): 0.9
- CCCc1nc(OC)c(NC(=O)N2CCN(c3cc(OC)cc(OC)c3)CC2)cc1C(=O)NC(C)C(=O)Nc1cc(CO)cc(Nc2c3ccccc3nc3ccccc23)c1 (centres unmarked): 0.4
- CCc1nc(OC)c(NC(=O)N2CCN(c3cc(C)cc(C)c3)CC2)cc1C(=O)NC(C)C(=O)Nc1cc(CO)cc(Nc2c3ccccc3nc3ccccc23)c1 (centres unmarked): 0.3
- CCc1nc(OC)c(NC(=O)N2CCN(c3cc(C)cc(C)c3)CC2)cc1C(=O)NC(C)C(=O)Nc1cc(CO)cc(Nc2c3ccccc3nc3c(C)c(C)ccc23)c1 (centres unmarked): 0.3

Ask: Item CCc1nc(OC)c(NC(=O)N2CCN(c3cc(OC)cc(OC)c3)CC2)cc1C(=O)NC(C)C(=O)Nc1cc(CO)cc(Nc2c3ccccc3nc3ccccc23)c1 (centres unmarked) with P388 (mouse lymphoid neoplasma cell) - IC50?
Result: 1
